System: COLO-320 colorectal cancer cell line
Test: Cell proliferation, cell count by microscopy
Format: cell-based
Conditions: Homo sapiens; single agent; COLO-320 (no driver mutation listed); 72 h treatment
PARAMETER: IC50
Param answer (str): number followed by unit.

Provide one value: measured IC50 of NC1(c2ccc(-c3nc4ccn5c(=O)[nH]nc5c4cc3-c3ccccc3)cc2)CCC1 [COMPOUND B, reference compound]
5.1 µM

Return value of IC50 for input Cc1nc(NC(=O)N2CCC[C@H]2C(N)=O)sc1-c1ccnc(C(C)(C)C(F)(F)F)c1 [COMPOUND A] , no commentary.
7.3 µM

====

Kindly state IC50 for each of the entries shown.
Tested on: RKO colorectal cancer cell line
Assay: Cell proliferation, cell count by microscopy
Assay type: cell-based
Details: single agent; RKO (BRAF, PIK3CA); 72 h treatment
Description: COMPOUNDS A and B were dissolved in 100% DMSO (Sigma, Catalog number D2650) at concentrations of 20 mM and stored at −20° C. until use. […] Cell lines were cultured in 37° C. and 5% CO2 incubator and expanded in T-75 flasks. In all cases cells were thawed from frozen stocks, expanded through ≥1 passage using 1:3 dilutions, counted and assessed for viability using a ViCell counter (Beckman-Coulter) prior to plating. […]
Give the value in µM but do not write µM after it.

State its IC50 for this compound: NC1(c2ccc(-c3nc4ccn5c(=O)[nH]nc5c4cc3-c3ccccc3)cc2)CCC1 [COMPOUND B, reference compound]
3.9

Answer with the recorded IC50 of Cc1nc(NC(=O)N2CCC[C@H]2C(N)=O)sc1-c1ccnc(C(C)(C)C(F)(F)F)c1 [COMPOUND A] only.
2.6

====

Would you mind telling me the reported IC50 of each entry?
System: SW620 colorectal cancer cell line
Assay: Cell proliferation, cell count by microscopy
Format: cell-based
Settings: Homo sapiens, SW-620; single agent; SW620 (KRAS); 72 h treatment

Indicate the recorded IC50 value for this compound: Cc1nc(NC(=O)N2CCC[C@H]2C(N)=O)sc1-c1ccnc(C(C)(C)C(F)(F)F)c1 [COMPOUND A]
> 10 µM

Give me measured IC50, please, for this compound: NC1(c2ccc(-c3nc4ccn5c(=O)[nH]nc5c4cc3-c3ccccc3)cc2)CCC1 [COMPOUND B, reference compound]
> 10 µM
